Please respond with reported GI50 for every item in the list.
Tested on: A498
METHOD_SUMMARY: NCI tumour cell line growth inhibition, 48 h
Activity calls are given as the source filed them. No stated cut-off is given here; in the data, active = GI50 up to about 1.1 µM and inactive = higher.

According to the records, this molecule CCCN(CCCCC(NC(C)=O)C(=O)NCc1ccccc1)C(=O)N(CCCl)N=O (stereo unspecified) displays GI50 of > 86.9 µM (inactive)

According to the records, this molecule CCN1c2nc3ccccc3nc2N(CC)c2nc3ccccc3nc21 displays GI50 of 57.3 µM (inactive)

According to the records, this molecule N/C(=N\O)N/N=C/c1ccc2c(c1)OCCO2 displays GI50 of 27.2 µM (inactive)

According to the records, this molecule O=C1CCCC1NC(=O)C(F)(F)F (stereo unspecified) displays GI50 of > 100 µM (inactive)

According to the records, this molecule CCOC(=O)c1cc(Cl)ccc1OC(N)=O displays GI50 of > 100 µM (inactive)

According to the records, this molecule Cc1ccc(/C=N/n2c(Cc3ccccc3)n[nH]c2=O)cc1 displays GI50 of > 100 µM (inactive)

According to the records, this molecule CCCSc1ccc2[nH]c(N3C(=O)/C(=C/c4ccc(SC)cc4)N=C3c3ccccc3)cc2c1 displays GI50 of 26.9 µM (inactive)

According to the records, this molecule CNCC(SC)c1ccc(O)c(O)c1 (stereo unspecified) displays GI50 of > 100 µM (inactive)

According to the records, this molecule COC(=O)c1ccccc1C1CN=NC12Cc1ccc(C)cc1C2=O (stereo unspecified) displays GI50 of > 100 µM (inactive)

According to the records, this molecule C(=C\C(SCc1ccccc1)SCc1ccccc1)/c1ccccc1 displays GI50 of > 10 µM (inactive)

According to the records, this molecule C=C1[C@H](OC(=O)C(C)C)[C@]23CC4(O)[C@@H]5[C@@]6(C)CCC[C@]57C([C@@H]2C[C@@]1(O)[C@H](O)[C@@H]73)N4C6 displays GI50 of > 100 µM (inactive)

====

Please respond with reported GI50 for every item in the list.
Test system: IGROV-1
METHOD_SUMMARY: NCI tumour cell line growth inhibition, 48 h
Activity calls are given as the source filed them. Cut-off read from the data, not from the text of the source: active = GI50 up to about 1.1 µM and inactive = higher.

According to the records, this compound O=C1NC(=S)NC(=O)C1=Cc1ccc(-c2ccccc2)cc1 displays GI50 of > 100 µM (inactive)

According to the records, this compound CC(=O)Nc1cc2c3c(c1)CCCN3CCC2 displays GI50 of > 100 µM (inactive)

According to the records, this compound N/N=C1/CCCc2nonc21 displays GI50 of > 100 µM (inactive)

According to the records, this compound CC1=C(C)CC2C(=O)N(c3cc(C(C)(C)C)ccc3C(C)(C)C)C(=O)C2C1 (configuration not stated) displays GI50 of 61 µM (inactive)

According to the records, this compound N#CCN1CCOCCOCCN(CC#N)CCOCCOCC1 displays GI50 of > 100 µM (inactive)

According to the records, this compound CCOC(=O)C1(N)CCc2[nH][nH]c(=O)c2C1 (configuration not stated) displays GI50 of > 100 µM (inactive)

According to the records, this compound C/C(=C/CC[C@](C)(OC1OC(CO)C(O)C(O)C1O)[C@H]1CC[C@]2(C)[C@@H]1CC[C@@H]1[C@@]3(C)CC[C@H](O)C(C)(C)[C@@H]3C[C@H](O)[C@]12C)CO (some centres not stated) displays GI50 of 38 µM (inactive)

====

System: K562
METHOD_SUMMARY: NCI tumour cell line growth inhibition, 48 h
Active and inactive are the calls of the source. No stated cut-off is given here; in the data, active = GI50 up to about 1.1 µM and inactive = higher.
Field 'call' accepts active, inactive

Outcome? CC(=O)O[C@H]1C(=O)[C@@]2(C)[C@H]([C@H](OC(=O)c3ccccc3)[C@]3(O)C[C@H](OC(=O)[C@H](O)[C@@H](NC(=O)c4cccc(N=[N+]=[N-])c4)c4ccccc4)C(C)=C1C3(C)C)[C@]1(OC(C)=O)CO[C@@H]1C[C@@H]2O
active

Outcome? [C-]#[N+]C(C)(C)C[C@H]1CC(C)C2CCC(C)C3([N+]#[C-])CCC(=C)C1[C@H]23 (stereo partly specified)
active

Outcome? CCOC(=O)C(NC(=O)OC(C)(C)C)C(=O)OCC
inactive

Outcome? CCOC(=O)Nc1ccc(S(=O)(=O)OC)cc1.CCOC(=O)Nc1ccc(S(=O)(=O)OC)cc1.Cc1cn(C2CC(O)C(CO)O2)c(=O)[nH]c1=O
inactive

Outcome? CC(=O)CC12NC(=O)N(C)N=C1N(C)C(=O)N(C)C2=O (stereo unspecified)
inactive

Outcome? CO/C(=N\N=C\c1ccc(Cl)cc1)c1ccncc1
inactive

Outcome? c1ccc(C2N=C(c3ccccn3)C(c3ccccn3)=NC2c2ccccc2)cc1 (stereo unspecified)
inactive

Outcome? CC(Oc1ccccc1Cl)C(=O)NN1C(=O)CSC1c1ccccc1 (stereo unspecified)
inactive

Outcome? O=C1N[C@H]2c3c(Cl)sc(Cl)c3/C(=N/O)[C@H]2O1
inactive

Outcome? [N-]=[N+]=Nc1nc2ccccc2c(N=[N+]=[N-])c1Cl
inactive

Outcome? Oc1cc(-c2cccc(F)c2)nc2cc3c(cc12)OCO3
active

Outcome? CCOC(=O)N(C)CCC1CC=CC(=O)C1c1cccc(OC)c1OC (stereo unspecified)
inactive

Outcome? CCOP(=O)(OCC)C(c1ccccc1)N(C(=O)NC(F)(F)F)c1cccc(F)c1 (stereo unspecified)
inactive

Outcome? O=C1NC2NC3NC(=O)NC3NC2N1 (stereo unspecified)
inactive

Outcome? CC(C)(C)[Si](C)(C)OC1(CCc2ccccc2OS(=O)(=O)C(F)(F)F)CCCC=C1COCc1ccccc1 (stereo unspecified)
inactive

Outcome? O=NNc1cnc(O)nc1O
inactive

Outcome? CC1CCC[P+](Cc2ccccc2)(c2ccccc2)CC1 (stereo unspecified)
inactive

Outcome? COc1cc(/C=C2\C[C@H]3[C@@H]4CCc5cc(O)ccc5[C@H]4CC[C@]3(C)C2=O)cc(OC)c1OC
inactive

Outcome? Oc1ccc(-c2nc3cc(F)ccc3s2)cc1
inactive

Outcome? CC(=O)Nc1ccc(C(=O)N2N=C(C)/C(=C/c3cccc(O)c3)C2=O)cc1
inactive

Outcome? O=C(CC(O)(C(F)(F)F)C(F)(F)F)C(c1ccccc1)C(O)(C(F)(F)F)C(F)(F)F (stereo unspecified)
inactive

Outcome? COC(=O)C1=CC2OC1(C)CCC2=O (stereo unspecified)
inactive

Outcome? CCn1cnnc1-c1nsc2ccccc12
inactive

Outcome? COC(=O)C(CCCCNC(=O)CNC(=O)OCc1ccccc1)NC(=O)C(CCCCNC(=O)CNC(=O)OCc1ccccc1)NC(=O)OCc1ccccc1 (stereo unspecified)
inactive

Outcome? O/N=C/c1ncccc1C1OCCO1
inactive

Outcome? CN1CCC2(CC1)SC[C@H]1C(=O)N(c3ccc(Cl)cc3)C(=O)N12
inactive

Outcome? O=C1c2ccccc2-c2cccc3ccc(Cc4ccc5ccccc5c4)c1c23
inactive

Outcome? CCOC(=O)NN(C(=O)OCC)c1c(C)cc(C)cc1C
inactive

Outcome? Cc1ccc(S(=O)(=O)NN=C2C(C)(C)CC2(C)C)cc1
inactive

Outcome? O=C(O)CN(c1ccccc1)S(=O)(=O)c1ccccc1[N+](=O)[O-]
inactive

Outcome? O=[N+]([O-])C(/C=N/Nc1ccccc1)/C=N/Nc1ccccc1
inactive

Outcome? CCN(CC)/[N+]([O-])=N/OCC(C)O (stereo unspecified)
inactive

Outcome? CC(C)(C)CNCCCNc1ccc(Cl)cc1
active

Outcome? CCC1N2CCCCC2[C@@H]2c3[nH]c4ccccc4c3CCN12 (stereo partly specified)
inactive

Outcome? CC12C(=O)OC(=O)C1(C)C1C=CC2O1 (stereo unspecified)
inactive

Outcome? CN(C)CCNC(=O)c1ccc2ccc3cccnc3c2n1
inactive

====

System: HOP-92
METHOD_SUMMARY: NCI tumour cell line growth inhibition, 48 h
The source made the active and inactive calls. No stated cut-off is given here; in the data, active = GI50 up to about 1.1 µM and inactive = higher.
Field 'call' accepts active, inactive

Outcome? Cc1cccc(/C=N/NC(=S)NC2CCCCC2)n1
inactive

Outcome? COc1ccc2c(c1)c(=Cc1ccc(N(C)C)cc1)c1cc(-c3ccccc3)[n+](C)n12
active

Outcome? O=c1oc2ccc([N+](=O)[O-])cc2cc1-c1csc(-c2ccccc2)n1
inactive

Outcome? CC(=O)N(C)c1ccc2ncccc2c1[N+](=O)[O-]
inactive

Outcome? CC(C)(C)[Si](C)(C)O[C@@H](C(=O)OC1C=CCCC1)[C@@H](NC(=O)c1ccccc1)c1ccccc1 (stereo not given in full)
inactive

Outcome? CCOC(=O)C(NC(=O)OC(C)(C)C)C(=O)OCC
inactive

Outcome? C/C(=C/CC[C@](C)(OC1OC(CO)C(O)C(O)C1O)[C@H]1CC[C@]2(C)[C@@H]1CC[C@@H]1[C@@]3(C)CC[C@H](O)C(C)(C)[C@@H]3C[C@H](O)[C@]12C)CO (stereo not given in full)
inactive

Outcome? O=S1(=O)OCCOS(=O)(=O)C1S(=O)(=O)c1ccc2ccccc2c1
inactive

Outcome? CN(CCCN=C=S)CCCN1c2ccccc2CCc2ccccc21
inactive

Outcome? COC(=O)C1=C(C(=O)OC)C2(/N=C(\Nc3ccccc3)c3ccccc3)N(c3ccc(OC)cc3)CC(c3ccccc3)N2O1 (stereo not given)
inactive

Outcome? O=C1CC2(CCNCC2)C(=O)N1N1CCOCC1
inactive

Outcome? COc1ccc(/C=C2\CCC(C)(CN(C)C)C2=O)cc1OC (stereo not given)
inactive

Outcome? CCOC(=O)Nc1ccc(S(=O)(=O)OC)cc1.CCOC(=O)Nc1ccc(S(=O)(=O)OC)cc1.Cc1cn(C2CC(O)C(CO)O2)c(=O)[nH]c1=O
inactive

Outcome? CCC(=O)C12OC3OC(C)(C)OC3C1OC(C)(C)O2 (stereo not given)
inactive

Outcome? CCN(CC)C1Oc2cc3c(cc2C(c2ccc(OC)cc2)C1C)OCO3 (stereo not given)
inactive
